condition.details: in ethanol, 323.2 K

{"columns": ["smiles.text", "solubility (mole fraction)"],
 "data": [
  ["CN1c2ccccc2C(=O)N2CCc3c([nH]c4ccccc34)[C@H]21", 0.000257]
]}

###

condition.details: in ethyl acetate, 283.2 K
assay.metric: solubility (mole fraction)

{"columns": ["smiles.text", "assay.metric", "readout.value"],
 "data": [
  ["CN1c2ccccc2C(=O)N2CCc3c([nH]c4ccccc34)[C@H]21", "solubility (mole fraction)", 0.000135]
]}

###

condition.details: in ethanol, 293.2 K

{"columns": ["smiles.text", "solubility (mole fraction)"],
 "data": [
  ["CN1c2ccccc2C(=O)N2CCc3c([nH]c4ccccc34)[C@H]21", "8.02e-05"]
]}

###

condition.details: in dichloromethane, 298.2 K

{"columns": ["smiles.text", "solubility (mole fraction)"],
 "data": [
  ["CN1c2ccccc2C(=O)N2CCc3c([nH]c4ccccc34)[C@H]21", 0.00048]
]}

###

condition.details: in diethyl ether, 303.2 K

{"columns": ["smiles.text", "solubility (mole fraction)"],
 "data": [
  ["CN1c2ccccc2C(=O)N2CCc3c([nH]c4ccccc34)[C@H]21", "9.09e-05"]
]}

###

condition.details: in n-hexane, 323.2 K

{"columns": ["smiles.text", "solubility (mole fraction)"],
 "data": [
  ["CN1c2ccccc2C(=O)N2CCc3c([nH]c4ccccc34)[C@H]21", "5.84e-06"]
]}

###

condition.details: in acetone, 313.2 K

{"columns": ["smiles.text", "solubility (mole fraction)"],
 "data": [
  ["CN1c2ccccc2C(=O)N2CCc3c([nH]c4ccccc34)[C@H]21", 0.000513]
]}

###

condition.details: in acetone, 303.2 K

{"columns": ["smiles.text", "solubility (mole fraction)"],
 "data": [
  ["CN1c2ccccc2C(=O)N2CCc3c([nH]c4ccccc34)[C@H]21", 0.00038]
]}

###

condition.details: in n-hexane, 293.2 K
assay.metric: solubility (mole fraction)

{"columns": ["smiles.text", "assay.metric", "readout.value"],
 "data": [
  ["CN1c2ccccc2C(=O)N2CCc3c([nH]c4ccccc34)[C@H]21", "solubility (mole fraction)", "1.66e-06"]
]}

###

condition.details: in chloroform, 303.2 K
assay.metric: solubility (mole fraction)

{"columns": ["smiles.text", "assay.metric", "readout.value"],
 "data": [
  ["CN1c2ccccc2C(=O)N2CCc3c([nH]c4ccccc34)[C@H]21", "solubility (mole fraction)", 0.00105]
]}

###

condition.details: in diethyl ether, 298.2 K
assay.metric: solubility (mole fraction)

{"columns": ["smiles.text", "readout.value"],
 "data": [
  ["CN1c2ccccc2C(=O)N2CCc3c([nH]c4ccccc34)[C@H]21", "7.51e-05"]
]}

###

condition.details: in n-hexane, 313.2 K
assay.metric: solubility (mole fraction)

{"columns": ["smiles.text", "readout.value"],
 "data": [
  ["CN1c2ccccc2C(=O)N2CCc3c([nH]c4ccccc34)[C@H]21", "4.37e-06"]
]}

###

condition.details: in acetone, 293.2 K

{"columns": ["smiles.text", "solubility (mole fraction)"],
 "data": [
  ["CN1c2ccccc2C(=O)N2CCc3c([nH]c4ccccc34)[C@H]21", 0.000303]
]}

Each recorded value in this set is attributed to BigSolDB 2.1.
